GI50 for assorted compounds
Tested on: PC-3 prostate
Experiment: NCI tumour cell line growth inhibition, 48 h

compound: O=C(O)c1ccc(NCc2nc3cc(Cl)c(Cl)cc3[nH]2)cc1
GI50: > 100 µM
--
compound: Cn1c(-c2ccncc2)c(-c2ccc(F)cc2)c2ncccc21
GI50: > 25 µM
--
compound: CC(C)Oc1ccc(-c2nn([C@@H](C)c3oc4ccc(F)cc4c(=O)c3-c3cccc(F)c3)c3ncnc(N)c23)cc1F
GI50: 4.68 µM
--
compound: Cn1cc(-c2csc(-c3c[nH]c4ccccc34)n2)c2cnccc21
GI50: 2.4 µM
--
compound: CCCCOC(=O)CC(CC(=O)OCCCC)(OC(C)=O)C(=O)OCCCC
GI50: 86.5 µM
--
compound: COc1cc2c3c(n(CCCNC4=NCCS4)c(=O)c2cc1OC)-c1cc2c(cc1C3=O)OCO2
GI50: 0.722 µM
--
compound: Cn1ccc2c1SSSSS2
GI50: 25.3 µM
--
compound: COc1cc(C2CC(c3cccc(Nc4ccncc4)c3)=NN2c2ccccc2)cc(OC)c1OC (stereo not drawn)
GI50: 1.79 µM

----------
System: HOP-18 NSCLC
Assay: NCI tumour cell line growth inhibition, 48 h

compound: CC1=C(C(=O)CC(=O)C(=O)Nc2ccc(Cl)cc2C)Sc2ccccc2N1
TGI: > 100 µM
//
compound: CC(=O)OC12c3ccccc3C1CCCC21OCCCO1 (stereo not drawn)
TGI: > 100 µM
//
compound: N#CC(C#N)=C1NN=C(Cl)c2ccccc21
TGI: > 100 µM

----------
Test system: IGROV1 ovarian
Assay: NCI tumour cell line growth inhibition, 48 h
reported_endpoint: TGI

compound: C=C(CCOC)CCC1CCCCC/C1=N\N(C)C (configuration not stated)
reported_endpoint: TGI
result: > 100 µM
//
compound: CC(=O)N1CCC(Nc2ncc3cc(Oc4ccc(F)cc4F)c(=O)n(C)c3n2)CC1
reported_endpoint: TGI
result: > 25 µM
//
compound: O=C1Nc2c(Cl)cc(Cl)cc2C1=O
reported_endpoint: TGI
result: 50.3 µM
//
compound: O=C(Nc1nnc(-c2ccc(Cl)cc2)o1)C(SC(=S)N1CCCCC1)c1ccccc1 (configuration not stated)
reported_endpoint: TGI
result: > 65.6 µM
//
compound: Cn1c(-c2ccccc2)cc(-c2cccs2)c1-c1ccsc1
reported_endpoint: TGI
result: > 100 µM
//
compound: Nc1c(C(=O)Nc2cccc(C(F)(F)F)c2)sc2nc3c(cc12)C(O)CCC3 (configuration not stated)
reported_endpoint: TGI
result: > 100 µM
//
compound: Nc1ccccc1Nc1ccccc1C(=O)[O-].Nc1ccccc1Nc1ccccc1C(=O)[O-].[Ni+2]
reported_endpoint: TGI
result: > 100 µM
//
compound: CC(=O)Nc1ccc(C2C(C(=O)Nc3ccccc3)=C(C)NC(C)=C2C(=O)Nc2ccccc2)cc1
reported_endpoint: TGI
result: > 100 µM
//
compound: COC(=O)/C=C1/SC(=Nc2ccc(F)cc2)N(CCc2c[nH]c3ccc(O)cc23)C1=O
reported_endpoint: TGI
result: > 100 µM
//
compound: COc1ccc(/C=C/C(=O)c2sc(NC(=S)NC(=O)c3ccc(Cl)cc3)nc2C)cc1OC
reported_endpoint: TGI
result: > 100 µM
//
compound: COc1ccc(C2C=C(c3ccc(OC)c(OC)c3)N=C3SC=CN32)c(Br)c1 (configuration not stated)
reported_endpoint: TGI
result: 5.51 µM
//
compound: COc1ccc(C2SC(N)=Nc3c2c(C)nn3C(=O)Cc2ccccc2)cc1 (configuration not stated)
reported_endpoint: TGI
result: > 100 µM

----------
Tested on: RPMI-8226 leukemia
Test: NCI tumour cell line growth inhibition, 48 h
GI50 for assorted compounds

compound: Cn1ccc2c1SSSSS2
GI50: 20900 nM
//
compound: CC(=O)N1CCC(Nc2ncc3cc(Oc4ccc(F)cc4F)c(=O)n(C)c3n2)CC1
GI50: > 25000 nM
//
compound: COc1ccc(/C=C/C2C(C#N)=C(N)OC3=C2C(=O)CCC3)cc1 (centres undefined)
GI50: 2140 nM
//
compound: Cn1cc(-c2csc(-c3c[nH]c4ccccc34)n2)c2cnccc21
GI50: 2140 nM

----------
TGI for assorted compounds
System: HL-60(TB) leukemia
Assay: NCI tumour cell line growth inhibition, 48 h

compound: COc1cc(C(=O)N(C)N(C)C)cc(OC)c1OC
measurement_target: HL-60(TB) leukemia
TGI: > 10 µM
--
compound: N#CC(C#N)=Cc1c[nH]c(=O)[nH]c1=O
measurement_target: HL-60(TB) leukemia
TGI: > 100 µM
--
compound: N#CC(C/C=C/c1ccccc1)NNC(=O)c1c(Cl)c(Cl)c(Cl)c(Cl)c1-c1nc2ccc(C(=O)c3ccccc3)cc2[nH]1 (centres undefined)
measurement_target: HL-60(TB) leukemia
TGI: 54.5 µM
--
compound: CCCCCCCCCCCC[C@@H](O)[C@H]1CC[C@H]([C@H]2CC[C@H]([C@H](O)CC[C@H](O)CCCCCCCC3=C[C@H](C)OC3=O)O2)O1
measurement_target: HL-60(TB) leukemia
TGI: 4.17 µM
--
compound: CCCCNC(=O)c1cc(S(=O)(=O)n2cc[nH]c2=O)c(SC)cc1Cl
measurement_target: HL-60(TB) leukemia
TGI: > 100 µM
--
compound: OC(CC(CC(O)(C(F)(F)F)C(F)(F)F)=NN=C(CC(O)(C(F)(F)F)C(F)(F)F)CC(O)(C(F)(F)F)C(F)(F)F)(C(F)(F)F)C(F)(F)F
measurement_target: HL-60(TB) leukemia
TGI: > 10 µM
--
compound: S=c1[nH]nc(-c2ccccc2)n1/N=C\c1ccc(-c2ccc(Cl)cc2)o1
measurement_target: HL-60(TB) leukemia
TGI: > 100 µM
--
compound: O=C(NC(O)(C(F)(F)F)C(F)(F)F)c1ccccc1
measurement_target: HL-60(TB) leukemia
TGI: > 100 µM
--
compound: CC1=C(C(=O)CC(=O)C(=O)Nc2ccc(Cl)cc2C)Sc2ccccc2N1
measurement_target: HL-60(TB) leukemia
TGI: > 100 µM
--
compound: CC(=O)N1CCC(Nc2ncc3cc(Oc4ccc(F)cc4F)c(=O)n(C)c3n2)CC1
measurement_target: HL-60(TB) leukemia
TGI: > 25 µM
--
compound: CCCCCCCCCCCC(=O)NCc1ccc(OC(=O)CCCCCCCCCCC)c(OC)c1
measurement_target: HL-60(TB) leukemia
TGI: 37.8 µM
--
compound: COc1cc(S(=O)(=O)Nc2nc(-c3ccc(N4C(=O)/C(=C\c5cccs5)N=C4c4ccccc4)cc3)cs2)ccc1Cl
measurement_target: HL-60(TB) leukemia
TGI: > 100 µM
--
compound: CCCCCCN1CCc2c(C)c(C#N)c3nc4ccccc4n3c21
measurement_target: HL-60(TB) leukemia
TGI: > 100 µM
--
compound: Cc1ccccc1NC(=O)/C(=N/NC(=O)CC#N)C1C(=O)N(c2ccccc2)N=C1N (centres undefined)
measurement_target: HL-60(TB) leukemia
TGI: > 100 µM
--
compound: COc1ccc(C(NS(=O)(=O)c2ccc(C)cc2)c2c(C(CBr)OC)c3ccccc3n2S(=O)(=O)c2ccccc2)cc1OC (centres undefined)
measurement_target: HL-60(TB) leukemia
TGI: > 100 µM
--
compound: CCSc1n/c(=C\c2ccc(N(C)C)cc2)c2nnnn12
measurement_target: HL-60(TB) leukemia
TGI: > 100 µM
--
compound: C[N+](C)(CCNc1ccc(NCC[N+](C)(C)Cc2ccc([N+](=O)[O-])cc2)c2c1C(=O)c1ccccc1C2=O)Cc1ccc([N+](=O)[O-])cc1
measurement_target: HL-60(TB) leukemia
TGI: > 100 µM
--
compound: CCOC(CNc1nn2c(C)nnc2s1)OCC
measurement_target: HL-60(TB) leukemia
TGI: > 100 µM
--
compound: Nc1nc(N)c2ncn(CCCC(c3ccccc3)P(=O)(O)O)c2n1 (centres undefined)
measurement_target: HL-60(TB) leukemia
TGI: > 100 µM
--
compound: CCC1OC(=O)CC(O)C(C)C(OC2OC(C)C(O)C(N(C)C)C2O)C(CC=O)CC(C)C(=O)/C=C/C2(C)OC2C1C (centres undefined)
measurement_target: HL-60(TB) leukemia
TGI: > 100 µM
--
compound: CN(C)CC1CC/C(=C\c2ccc(Cl)cc2)C1=O (centres undefined)
measurement_target: HL-60(TB) leukemia
TGI: 2.88 µM
--
compound: COc1ccc(-c2cc(=O)c3c(O)cc(O)cc3o2)cc1OC
measurement_target: HL-60(TB) leukemia
TGI: > 100 µM
--
compound: COC(=O)C1[C@@H](C(=O)OC)C(=O)O[C@H]1c1cc(OC)c(OC)c(OC)c1 (some centres undefined)
measurement_target: HL-60(TB) leukemia
TGI: > 100 µM
--
compound: COc1ccc(OC)c(C#N)c1C#N (tested in a mixture with another compound)
measurement_target: HL-60(TB) leukemia
TGI: > 100 µM
--
compound: Cc1cccc(C)c1NC(=O)C(=O)C(C#N)c1ccccc1 (centres undefined)
measurement_target: HL-60(TB) leukemia
TGI: > 100 µM
--
compound: COc1ccc2c(c1OC)-c1c(c3ccc([N+](=O)[O-])cc3c(=O)n1CCCN)C2=O
measurement_target: HL-60(TB) leukemia
TGI: 2.63 µM
--
compound: O=NN1CCNC1Cc1ccccc1 (centres undefined)
measurement_target: HL-60(TB) leukemia
TGI: > 100 µM
--
compound: O=S1OC[C@H](CCCl)O1 (some centres undefined)
measurement_target: HL-60(TB) leukemia
TGI: > 100 µM
--
compound: CC(=O)OCC(OC(C)=O)C(OC(C)=O)C(OC(C)=O)C(=O)CNn1c(-c2ccc(C)cc2)nc2ccccc2c1=O (centres undefined)
measurement_target: HL-60(TB) leukemia
TGI: > 100 µM
